Values from patent US20260207602A1

target_system: EGFR L858R (Homo sapiens, UniProt P00533, L858R)
Construct: purchased SignalChem E10-122BG
Sequence (P00533 25-1210 L858R): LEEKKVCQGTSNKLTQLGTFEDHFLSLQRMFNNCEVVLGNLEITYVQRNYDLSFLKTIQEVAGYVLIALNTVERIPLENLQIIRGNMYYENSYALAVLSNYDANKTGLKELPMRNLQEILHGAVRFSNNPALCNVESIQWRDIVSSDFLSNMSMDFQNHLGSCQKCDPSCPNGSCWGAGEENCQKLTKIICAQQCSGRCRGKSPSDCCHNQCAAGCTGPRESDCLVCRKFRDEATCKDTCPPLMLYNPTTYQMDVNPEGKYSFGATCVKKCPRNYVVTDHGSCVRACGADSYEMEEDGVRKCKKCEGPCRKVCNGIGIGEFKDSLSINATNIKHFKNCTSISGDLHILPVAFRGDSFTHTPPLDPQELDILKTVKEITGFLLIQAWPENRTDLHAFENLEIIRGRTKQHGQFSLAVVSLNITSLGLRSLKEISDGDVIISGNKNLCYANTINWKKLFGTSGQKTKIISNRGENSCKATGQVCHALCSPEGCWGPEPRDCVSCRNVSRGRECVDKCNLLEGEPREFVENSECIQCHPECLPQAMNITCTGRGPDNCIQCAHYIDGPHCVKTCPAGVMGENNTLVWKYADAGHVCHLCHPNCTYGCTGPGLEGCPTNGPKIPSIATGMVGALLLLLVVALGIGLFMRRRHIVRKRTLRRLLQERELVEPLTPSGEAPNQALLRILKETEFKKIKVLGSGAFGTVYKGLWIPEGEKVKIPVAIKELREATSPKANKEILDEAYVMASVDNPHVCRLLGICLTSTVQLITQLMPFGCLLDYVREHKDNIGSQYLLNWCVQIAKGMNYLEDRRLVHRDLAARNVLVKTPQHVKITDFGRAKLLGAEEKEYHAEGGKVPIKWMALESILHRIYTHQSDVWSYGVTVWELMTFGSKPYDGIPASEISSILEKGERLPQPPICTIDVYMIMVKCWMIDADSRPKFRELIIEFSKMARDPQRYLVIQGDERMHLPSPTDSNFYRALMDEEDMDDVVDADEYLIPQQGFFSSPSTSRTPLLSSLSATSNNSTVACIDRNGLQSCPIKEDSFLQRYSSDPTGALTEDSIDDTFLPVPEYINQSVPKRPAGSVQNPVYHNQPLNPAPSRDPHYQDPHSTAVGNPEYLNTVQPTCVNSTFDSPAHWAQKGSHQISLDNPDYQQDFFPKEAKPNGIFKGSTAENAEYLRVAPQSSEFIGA
protocol_details: Biochemical EGFR inhibition assay (Caliper mobility shift), EGFR L858R
run_conditions: biochemical Caliper mobility shift assay, EGFR L858R enzyme; read-out: Enz EGFR L858R IC50
pIC50: −log10 of the molar value.
measure_name: pIC50

// lookup pIC50 for CC(C)N1CC[C@@H](Oc2cc(-c3cnn(C)c3)cc3ncnc(Nc4ccc5ncsc5c4)c23)C1=O (single isomer, unassigned) [Example 64] ≥ 8.00

Now give it for Cn1cc(-c2cc(O[C@H]3COC[C@@H]3O)c3c(Nc4ccc5ncsc5c4)ncnc3c2)cn1 (single isomer, unassigned) [Example A30] too. ≥ 8.00

Another compound to look at: CC[C@H](Oc1cc(-c2cnn(C)c2)cc2ncnc(Nc3ccc4ncsc4c3F)c12)C1CN(C)C1 (single isomer, unassigned) [Example 390] < 7.30

Record: Cn1cc(-c2cc(OC3CCCOC3)c3c(Nc4ccc5ncsc5c4)ncnc3c2)cn1 (stereo not shown) [Example 414] ≥ 8.00

---

The following compounds are listed with their measured pIC50 values.
target_system: intracellular phosphorylation of EGFR (Tyr1068) in PC-9 cells (Homo sapiens, UniProt P00533, DEL746-750)
Sequence (P00533 with tags, fused parts or gaps DEL746-750): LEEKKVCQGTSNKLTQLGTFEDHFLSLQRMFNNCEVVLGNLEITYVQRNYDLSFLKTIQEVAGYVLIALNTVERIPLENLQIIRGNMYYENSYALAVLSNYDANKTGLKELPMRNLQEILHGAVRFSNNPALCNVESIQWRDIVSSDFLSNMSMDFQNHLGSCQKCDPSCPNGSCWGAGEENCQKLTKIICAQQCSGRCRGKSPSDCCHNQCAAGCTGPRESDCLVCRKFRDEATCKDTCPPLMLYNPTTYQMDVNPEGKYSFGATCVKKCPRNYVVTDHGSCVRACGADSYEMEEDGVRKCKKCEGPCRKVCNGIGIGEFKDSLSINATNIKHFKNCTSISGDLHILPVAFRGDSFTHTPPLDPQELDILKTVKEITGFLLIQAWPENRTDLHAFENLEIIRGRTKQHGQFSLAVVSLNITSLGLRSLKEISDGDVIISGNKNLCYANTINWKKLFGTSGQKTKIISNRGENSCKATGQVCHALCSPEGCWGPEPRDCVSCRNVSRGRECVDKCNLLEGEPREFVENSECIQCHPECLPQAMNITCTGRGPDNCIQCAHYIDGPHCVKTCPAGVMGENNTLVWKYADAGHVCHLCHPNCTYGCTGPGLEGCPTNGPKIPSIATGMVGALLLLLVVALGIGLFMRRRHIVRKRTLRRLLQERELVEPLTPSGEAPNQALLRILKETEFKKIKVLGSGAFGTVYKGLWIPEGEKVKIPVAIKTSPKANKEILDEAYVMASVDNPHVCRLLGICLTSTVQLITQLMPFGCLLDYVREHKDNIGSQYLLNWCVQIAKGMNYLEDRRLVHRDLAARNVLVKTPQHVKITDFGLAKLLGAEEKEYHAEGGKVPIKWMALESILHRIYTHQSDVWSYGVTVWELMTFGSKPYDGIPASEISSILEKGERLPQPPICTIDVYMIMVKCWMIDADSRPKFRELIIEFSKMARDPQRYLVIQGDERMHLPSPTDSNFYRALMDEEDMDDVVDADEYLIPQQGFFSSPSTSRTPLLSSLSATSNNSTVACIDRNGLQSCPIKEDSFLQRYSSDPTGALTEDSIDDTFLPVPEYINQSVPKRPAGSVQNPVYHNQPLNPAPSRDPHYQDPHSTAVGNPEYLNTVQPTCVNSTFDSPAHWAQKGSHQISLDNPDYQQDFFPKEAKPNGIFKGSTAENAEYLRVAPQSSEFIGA
protocol_details: PC-9 pEGFR AlphaLISA assay
Type: cell-based
run_conditions: 4 hours incubation, read-out: Phos EGFR PC9 IC50
pIC50: −log10 of the molar value.

Which pIC50 value is on record for CN1C[C@H](Oc2cc(-c3cnn(C)c3)cc3ncnc(Nc4ccc5ncsc5c4)c23)[C@@H](F)C1 [Example 383] ? 7.30 to 8.00

Another compound to check: Cn1cc(-c2cc(O[C@H]3C[C@@H](O)C3)c3c(Nc4ccc5ncsc5c4)ncnc3c2)cn1 [Example 20] ≥ 8.00

Same question, C[C@@H](Oc1cc(N2CCN(C)CC2)cc2ncnc(Nc3ccc4ncsc4c3F)c12)C1COC1 (single isomer, unassigned) [Example 95] this time 7.30 to 8.00

And the next one, Cn1cc(-c2cc(O[C@H]3CCOC[C@@H]3F)c3c(Nc4ccc5ncsc5c4)ncnc3c2)cn1 (single isomer, unassigned) [Example 45] ? 7.30 to 8.00

What about Cn1cc(-c2cc(O[C@@H]3CCOC[C@@H]3F)c3c(Nc4ccc5ncsc5c4)ncnc3c2)cn1 (single isomer, unassigned) [Example 44] ? 7.30 to 8.00

Similarly, CO[C@@H]1CCN(C)C[C@H]1Oc1cc(-c2cnn(C)c2)cc2ncnc(Nc3ccc4ncsc4c3)c12 (single isomer, unassigned) [Example A40] ? 7.30 to 8.00

---

target_system: intracellular phosphorylation of EGFR (Tyr1068) in PC-9 cells (Homo sapiens, UniProt P00533, DEL746-750)
protocol_details: PC-9 pEGFR AlphaLISA assay
run_conditions: 4 hours incubation, read-out: Phos EGFR PC9 IC50
pIC50: −log10 of the molar value.
This listing pairs compounds with measured pIC50.

{"columns": ["compound", "reading"],
 "data": [
  ["C[C@@H](Oc1cc(-c2cnn(CC(C)(C)O)c2)cc2ncnc(Nc3ccc4ncsc4c3)c12)C1COC1 (single isomer, unassigned)", "≥ 8.00"],
  ["Cn1cc(-c2cc(O[C@H]3CCCNC3)c3c(Nc4ccc5ncsc5c4)ncnc3c2)cn1", "7.30 to 8.00"]
]}

Query compound follows.
Return reported pIC50; argument: COC[C@@H](C)Oc1cc(N2CCN(C)C[C@H]2C)cc2ncnc(Nc3ccc4ncsc4c3)c12 (single isomer, unassigned) [Example 212] < 7.30
